target_or_test_system: Neuronal acetylcholine receptor; alpha4/beta2 (Homo sapiens, UniProt P17787+P43681)
Sequence (P17787 whole entry, canonical isoform): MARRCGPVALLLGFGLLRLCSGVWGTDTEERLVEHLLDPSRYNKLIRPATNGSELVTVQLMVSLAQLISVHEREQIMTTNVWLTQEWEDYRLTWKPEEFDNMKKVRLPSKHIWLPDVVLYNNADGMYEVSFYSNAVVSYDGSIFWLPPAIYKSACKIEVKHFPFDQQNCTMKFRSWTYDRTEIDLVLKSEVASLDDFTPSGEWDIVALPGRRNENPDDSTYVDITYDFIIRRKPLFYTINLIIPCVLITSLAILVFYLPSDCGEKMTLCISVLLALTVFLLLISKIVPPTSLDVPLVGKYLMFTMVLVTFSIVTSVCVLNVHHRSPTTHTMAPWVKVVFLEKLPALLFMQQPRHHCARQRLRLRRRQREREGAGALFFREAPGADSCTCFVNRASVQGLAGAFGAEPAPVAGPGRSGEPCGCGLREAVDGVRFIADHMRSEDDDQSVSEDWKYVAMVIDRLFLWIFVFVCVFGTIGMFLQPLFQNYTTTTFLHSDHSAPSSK
Sequence (P43681 whole entry, canonical isoform): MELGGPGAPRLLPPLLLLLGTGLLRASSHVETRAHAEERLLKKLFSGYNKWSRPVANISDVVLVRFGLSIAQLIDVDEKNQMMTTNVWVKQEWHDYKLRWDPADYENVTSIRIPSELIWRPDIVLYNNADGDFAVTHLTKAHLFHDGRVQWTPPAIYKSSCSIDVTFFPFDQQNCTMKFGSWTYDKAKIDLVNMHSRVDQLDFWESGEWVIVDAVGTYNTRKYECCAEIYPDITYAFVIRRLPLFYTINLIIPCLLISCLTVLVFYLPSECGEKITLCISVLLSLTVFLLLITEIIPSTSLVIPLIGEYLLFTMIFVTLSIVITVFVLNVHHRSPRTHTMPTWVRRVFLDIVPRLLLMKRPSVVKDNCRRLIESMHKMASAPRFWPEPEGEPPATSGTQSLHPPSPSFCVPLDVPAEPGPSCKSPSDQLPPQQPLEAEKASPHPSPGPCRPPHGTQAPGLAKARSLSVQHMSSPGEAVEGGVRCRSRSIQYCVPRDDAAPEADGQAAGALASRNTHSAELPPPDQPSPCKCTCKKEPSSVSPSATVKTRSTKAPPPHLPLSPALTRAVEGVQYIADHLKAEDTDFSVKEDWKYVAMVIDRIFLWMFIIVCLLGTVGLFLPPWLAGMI
procedure_details: Displacement of [3H] nicotine from human alpha4beta2 nAChR transfected in SH-EP1 cells by liquid scintillation counting
measured_metric: log10 of Ki (log10 of the value in nM)
Annotation: log10 of Ki, nM basis.

O=C([C@H]1C[C@@H]1F)N1CC2CC(C1)N2 :: 0.73

## Task For the molecule O=C(CC1C=CCC1)N1CC2CC(C1)N2 (stereo unspecified) , what log10 of Ki is on record?
## Result 1.72

## Task For the molecule O=C(C1CCC1)N1CC2CC(C1)N2 , what log10 of Ki is on record?
## Result 1.20

###

target_or_test_system: Neuronal acetylcholine receptor; alpha4/beta2 (Homo sapiens, UniProt P17787+P43681)
procedure_details: Agonist activity at human alpha4beta2 nAChR low sensitivity isoform transfected in SH-EP1 cells assessed as calcium flux by FLIPR assay
Type: cell-based
Here, each record is paired with measured pEC50 data.
Lab note: report pEC50 as minus log10 of the concentration in molar units, number only.

Worked examples follow.
O=C([C@H]1C[C@H]1F)N1CC2CC(C1)N2 :: 5.82
C[C@@H]1C[C@H]1C(=O)N1CC2CC(C1)N2 :: 5.54
O=C([C@@H]1C[C@@H]1F)N1CC2CC(C1)N2 :: 6.43

Would you kindly look at the next entry?
## Task For the molecule CCC(=O)N1CC2CC(C1)N2 , what pEC50 is on record?
## Result 5.23

###

target_or_test_system: Neuronal acetylcholine receptor; alpha3/alpha6/beta2/beta3 (Homo sapiens, UniProt P17787+P32297+Q05901+Q15825)
Sequence (P17787 whole entry): as the sequence (P17787 whole entry, canonical isoform) above
Sequence (P32297 whole entry): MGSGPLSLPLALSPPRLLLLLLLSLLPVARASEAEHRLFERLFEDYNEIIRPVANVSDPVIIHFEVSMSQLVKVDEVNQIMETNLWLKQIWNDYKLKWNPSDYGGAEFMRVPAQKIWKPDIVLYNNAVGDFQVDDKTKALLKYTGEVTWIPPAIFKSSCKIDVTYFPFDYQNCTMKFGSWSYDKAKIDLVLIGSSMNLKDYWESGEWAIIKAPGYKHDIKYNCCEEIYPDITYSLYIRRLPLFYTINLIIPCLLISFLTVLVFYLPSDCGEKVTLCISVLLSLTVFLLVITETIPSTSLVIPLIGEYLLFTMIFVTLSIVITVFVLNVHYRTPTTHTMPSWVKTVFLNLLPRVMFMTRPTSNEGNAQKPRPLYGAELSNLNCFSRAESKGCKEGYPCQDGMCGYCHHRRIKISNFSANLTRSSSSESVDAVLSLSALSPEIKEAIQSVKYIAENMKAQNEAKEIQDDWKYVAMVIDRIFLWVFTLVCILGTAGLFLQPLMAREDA
Sequence (Q15825 whole entry): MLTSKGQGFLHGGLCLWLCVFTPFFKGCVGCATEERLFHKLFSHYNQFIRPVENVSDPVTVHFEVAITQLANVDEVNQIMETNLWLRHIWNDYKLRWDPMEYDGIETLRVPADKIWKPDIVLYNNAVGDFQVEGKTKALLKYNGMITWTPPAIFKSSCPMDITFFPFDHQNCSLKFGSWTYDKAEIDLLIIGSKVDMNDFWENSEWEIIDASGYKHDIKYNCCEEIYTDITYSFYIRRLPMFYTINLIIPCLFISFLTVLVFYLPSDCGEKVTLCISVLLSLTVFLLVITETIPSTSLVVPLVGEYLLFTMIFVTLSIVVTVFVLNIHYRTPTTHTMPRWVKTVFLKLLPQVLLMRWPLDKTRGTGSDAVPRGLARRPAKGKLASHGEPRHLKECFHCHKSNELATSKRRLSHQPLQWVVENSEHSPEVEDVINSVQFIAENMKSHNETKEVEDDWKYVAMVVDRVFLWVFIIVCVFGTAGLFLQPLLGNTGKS
Sequence (Q05901 whole entry): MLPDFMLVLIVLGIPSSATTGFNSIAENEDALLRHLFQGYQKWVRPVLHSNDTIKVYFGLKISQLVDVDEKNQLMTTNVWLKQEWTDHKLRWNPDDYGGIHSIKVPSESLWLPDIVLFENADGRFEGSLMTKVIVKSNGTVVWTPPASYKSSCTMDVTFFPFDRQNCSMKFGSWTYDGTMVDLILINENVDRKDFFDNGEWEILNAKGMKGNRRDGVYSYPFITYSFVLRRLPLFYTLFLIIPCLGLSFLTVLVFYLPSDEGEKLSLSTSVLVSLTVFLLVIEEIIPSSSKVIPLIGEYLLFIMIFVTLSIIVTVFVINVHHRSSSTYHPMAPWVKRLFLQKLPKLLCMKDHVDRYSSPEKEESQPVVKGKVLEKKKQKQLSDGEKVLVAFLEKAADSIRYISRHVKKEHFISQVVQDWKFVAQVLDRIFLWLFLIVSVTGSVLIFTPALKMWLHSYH
procedure_details: Displacement of [3H]epibatidine from human alpha6/alpha3beta2beta3 nAChR transfected in CHO cells by liquid scintillation counting
Here, each record is paired with measured log10 of Ki data.
Annotation: log10 of Ki, nM basis.

C[C@@H]1C[C@H]1C(=O)N1CC2CC(C1)N2 :: 1.15
O=C(C1CCCC1)N1CC2CC(C1)N2 :: 3.46
CC(=O)N1CC2CC(C1)N2 :: 2.79
O=C(C1CC1)N1CC2CCC(C1)N2 :: 3.86

## Task For the compound O=C([C@H]1C[C@H]1F)N1CC2CC(C1)N2 , what log10 of Ki is on record?
## Result 1.43

## Task For the compound O=C(C1CC1)N1CCNCC1 , what log10 of Ki is on record?
## Result 4.41

## Task For the compound O=C(C1CC1)N1CC2CC(C1)N2 , what log10 of Ki is on record?
## Result 1.32

## Task For the compound O=C([C@@H]1C[C@H]1F)N1CC2CC(C1)N2 , what log10 of Ki is on record?
## Result 1.63

###

Here, each record is paired with measured pKi data.
target_or_test_system: Neuronal acetylcholine receptor; alpha4/beta2 (Homo sapiens, UniProt P17787+P43681)
procedure_details: Displacement of [3H] nicotine from human alpha4beta2 nAChR transfected in SH-EP1 cells by liquid scintillation counting
Lab note: report pKi as minus log10 of the concentration in molar units, number only.

CC(C)C(=O)N1CC2CC(C1)N2 :: 6.89
O=C(C1CC1(F)F)N1CC2CC(C1)N2 (stereo not drawn) :: 8.23
O=C(C1CC=CC1)N1CC2CC(C1)N2 :: 7.29
CC1(C)CC1C(=O)N1CC2CC(C1)N2 (stereo not drawn) :: 8.41
CCCC(=O)N1CC2CC(C1)N2 :: 7.85
CC(=O)N1CC2CC(C1)N2 :: 6.82

## Task For the compound O=C([C@@H]1C[C@@H]1F)N1CC2CC(C1)N2 , what pKi is on record?
## Result 8.77

## Task For the compound O=C(C1CCCC1)N1CC2CC(C1)N2 , what pKi is on record?
## Result 6.80
